Tested on: OVCAR-3
Assay: NCI tumour cell line growth inhibition, 48 h
Calls of active or inactive are those of the source. No stated cut-off is given here; in the data, active = GI50 up to about 1.1 µM and inactive = higher.
Hello, when you answer, please use one of the following outcomes: class 1 for active, class 0 for inactive

[[record]]
compound = "COc1ccc(/C=c2\\sc3n(c2=O)CCN=3)cc1"
class = "class 0"

[[record]]
compound = "Nc1nccc2c1ncn2C1C=C(CO)C(O)C1O (configuration not stated)"
class = "class 0"

[[record]]
compound = "O=C(NCc1ccccc1)c1nn[nH]c1O"
class = "class 0"

[[record]]
compound = "O=C(CSc1nc2nncc-2c(O)[nH]1)c1ccc(Cl)cc1"
class = "class 0"

[[record]]
compound = "OCC1CC2CC1C1(C2)OCCO1 (configuration not stated)"
class = "class 0"

[[record]]
compound = "Cc1c(C)c(CC(=O)N2CC2)c(C)c(C)c1CC(=O)N1CC1"
class = "class 0"


Task: Recorded call for O=Cc1[nH]c2ccccc2c1Br ?
Output: class 0

Task: Record: O=C1C[S+]([O-])c2ccccc2N1 (configuration not stated)
Output: class 0

Task: Please give the result for CC(=O)OCCOCNC(=S)N/N=C/c1ccc([N+](=O)[O-])s1 too.
Output: class 0

Task: What would you report for COC(=O)C1C(=O)CC(C)(O)C(C(=O)OC)C1c1ccc(N(C)C)cc1 (configuration not stated) ?
Output: class 0

Task: What do you get for CC(C)=CC(=O)c1[nH]c2ccccc2c1CC(=O)NCCc1c[nH]cn1 ?
Output: class 0
